assay: soluble fraction after stress (log2 fold change); higher = more stays soluble; pooled small domains, quantitative proteomics; details: stress: 75 degC;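 note: 20 min heating vs room temperature control held 20 min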
Readings of soluble fraction (log2) for the listed sequences
Reply with the value as a number alone.

Study these solved cases before continuing.
HMLEQEQFESKLLKAINNINETQRIAFLMHRIDGKKYAEIASELNISVKAVEKRIHLALIELKKEIENF | -0.747
HMGLNELQVKLNEAMQRLSLKHRTVVVMHDIEGIPHDEIAKIVGVSVGTIRSRLFYARRQLQADLGEY | -2.32

What soluble fraction (log2) value was documented for this sequence, HMSVEVADITRAYYEGVGFEWWIRSVRLDPNELIVDNDDEGKLYRVPFEINGEEVTFGDPVEVKIRYE ? -0.995

What soluble fraction (log2) value was documented for this sequence, HMSKLQKTKYAGVYFTEDTQTRVKTYVARIVLAGIIDTEVVVGHSNDQHRTNAAIAYQRRLELIQEAKN ? -4

What soluble fraction (log2) value was documented for this sequence, HMRPPLRAAIIDHLARDWHTVAELARLLPASGAHVSRLVVELRAVGAVDERISHPDWPGNRPTEYRLRRA ? -3.57

What soluble fraction (log2) value was documented for this sequence, HMSYPFSEDALKEKIREYLKHNRSINRKVLEAEFHIRKQTALNWLKKLEKSGFLIKEGSRNAPVYFLAE ? -1.83

What soluble fraction (log2) value was documented for this sequence, HMKKSRLHSVLEEIPGIGEKRRKILIKHFGTVEAIKKSSLEELARIKGMNRRAAQNVLEYLK ? -0.775

What soluble fraction (log2) value was documented for this sequence, HMITNLEPFKDFVRGFSGLHLEGVGQEKLAAALDERIRKTGSANERDYLQLIMEDVAERLKLINILT ? -0.627

---

test: soluble fraction after stress (log2 fold change); higher = more stays soluble; pooled small domains, quantitative proteomics; details: stress: 75 degC
measured_metric: soluble fraction (log2)
Reply with the value as a number alone.

HMIRQETYLLVRKAVGALPVQMRKIIELAMQGKKNAEIAAQLSISEGTVHTLKKTAYKKLRDRLQE | -3.12
HMRVTEIDYGAFMKMIEEKNIGEVKVEDYEIVFTDKDNKNIYKTGIMDDPDLTQRLYNSGAVFA | 0.0318
HMTVPTEVALELMHATALEDNEQRILYIASFKEKHREHLHATIEVDGQEVTLARYADLVATGAYL | -2.56
HMNIQPAMLNAANGGVAWKERGISMSQIMKRNAHTAEGSQKLWDYAFENFFQKNIDAGNIRDDR | -0.157
HMRKIGDVLRLHAGGLSKRRIAVSLNIGRTAVGDYISRARRAGLGWPLPEDLSEEALERLLFPPP | -3.08
HMASIGTATVTADNLRLRSEAGTGAETLTMAPKGAEVTVEEDAGDGWYKVTYGDTEGYMSGEWLKITLA | -0.0355
HMDIVEIYVGEEDGERIDSYLAQELNNVSRSYVQGLIKNQLITVNGNHVKPKHIVKEGEHIIVNIPPPKV | -0.0948
HMHKLTIEEALNYKTPANAGGPYSGKPFRDIYDQRGKAAVISFAKYYLSKATPEDPMVEVYRTLLDGAMEL | -1.61

What soluble fraction (log2) value was documented for this sequence, HMVPSSHNIAQKVKQIKINDLWLDVRERYIYLKNLYLSHPLEKDHPSFIVYVEAVNQIYNQYF ? -0.0707

What soluble fraction (log2) value was documented for this sequence, HMNINTEMEKVSYSLGVNIASSLKQQGWELDAKSLSDAFVDVFNGNKLLIDEKEASSILQNYQQKIANK ? 0.0321

What soluble fraction (log2) value was documented for this sequence, HMAAIPATVDEETYRRLKPMLKQYGILYHEFKPLRSGKKGAVELIFMEKDLALVQELLSRLKKEK ? 0.432

---

assay: soluble fraction after stress (log2 fold change); higher = more stays soluble; pooled small domains, quantitative proteomics; conditions: stress: 75 degC
Readings of soluble fraction (log2) for the listed sequences
Reply with the value as a number alone.

HMLDLPEISARIMEVFETKDRATISELSKLTGTNINTIKKHLSSLVENNYLIKHGKTRGAWYTKST | -0.126
HMAIIQSNNIFKSQKEIVDEILVELDIPKDKWNFFHMLISSGYKDEFDTNRIYEIIQTNYNMMDR | -0.298
HMGMSQQKQSSTVRIIMQDISDANEGLMKMSQIIDAALAEGISETIVRNAISNLHRGGTIYESQTGTYQW | -0.196

Then this sequence:
What soluble fraction (log2) value was documented for this sequence, HMRIFDDNMIFPTEAEISAALKRLVMDLPKVGFLQGHGERAVDNVGERAYSMFTHANNFRYALINQGFVT ? -0.029

---

test: soluble fraction after stress (log2 fold change); higher = more stays soluble; pooled small domains, quantitative proteomics; conditions: stress: 75 degC
measured_metric: soluble fraction (log2)
Reply with the value as a number alone.

Study these solved cases before continuing.
HMRHLSVPNRQVEGALDHIRSQGWLAEGMRVFASEDGSARLIPLGPGAPLEMLEPLAKFDVISHEGKPY | -0.149
HMAKQQTTTTAHVVTTGETLYSIAQKNGISVEELKKSNNITSDKLRPGQTLHITKVSKTSSTAK | 0.87

What soluble fraction (log2) value was documented for this sequence, HMAPAYELTEEETKIIEILKANENIDLNELKSQAALSGKKWDKSMKNLAKYNLTKVTVDGDAKTVAYLA ? 0.164

What soluble fraction (log2) value was documented for this sequence, HMKASTRELLDFVLSQRGVSTASVAKALGISVQNASTRLKKLSNEGLIIRSEASSLTGGIEFLYS ? -0.822

---

experiment: soluble fraction after stress (log2 fold change); higher = more stays soluble; pooled small domains, quantitative proteomics; settings: stress: 75 degC
Readings of soluble fraction (log2) for the listed sequences
Reply with the value as a number alone.

Study these solved cases before continuing.
HMQEIKPEPISDGRVWKEGMWATTPLGIEGQLLSDPDEKGMVQLGYGNMRININIQDLDPSR | -0.104
HMEDPKLAQLTEQERKILDLIADGLTNRQIAEKMFLAEKTVKNYVSTILAKMGMSNRSEAAAYVARLEAG | -0.0697
HMLETLVYPNPTTDKILLSSPVDYHLFSLKGELVLEGRGSSIEVSQLSKGVYFLNTKTQTFKIIK | -0.62
HMEKAKVPSVIGMTEANAKRTIRDAGFKVGRVTRVESEAYDKGKVIEQQYEAGSELEKKKPISIVVSKGKK | -0.108
HMFRPRIEPGAKGSYVLEVQKRLAKLGYEHAGFDGVYGPGTERAIMQLQRDKGLPVTGIVDMRTYEALGLF | -0.99

What soluble fraction (log2) value was documented for this sequence, HMHDYNTIVGVIEMRDKNIPLTSIRQRYGIGYSGIDLILTRYKDSGLTLKEFLALDPSQAEELIYPPK ? -0.961

What soluble fraction (log2) value was documented for this sequence, HMNNMVNTLLKLLAEQDVLRGIVRRFTPSSVFVFLQNEEVEVELPLQGRSLAPGQLVELTQEGASVALKRL ? -0.936

---

Readings of soluble fraction (log2) for the listed sequences
test: soluble fraction after stress (log2 fold change); higher = more stays soluble; pooled small domains, quantitative proteomics; conditions: stress: 75 degC
Reply with the value as a number alone.

Study these solved cases before continuing.
HMELPVAVPHTELSPEALRGVVESFVLREGTDYGERDVPFEAKVAQVIRQLERGEARIMFDPVTQSVQIVT | 0.162
HMSDAGMNQIGDMFRAPDLMAKLAMNPATREYVSQPDFLAMMEEVKRNPSALNNHLRDPRMMNVLSVAM | -0.271
HMPSLILADEPTGNLDSRNSSEVIALLKNASKRYAQTIIMITHNRSIAQSADRVLQVSDGVLTDMG | 0.345
HMNNVDQLIEQYKTLPGGLLPLLHAIKHALGYIPESTVGSIAKGFNLSRAEVHGVISFYHDFNTQP | 0.07
HMGPKPVDMSPIPEGQRNQVLHDWMYGRAANHPENWGQIRSDALERGLKSGLKADEIHAITGSVARALGLE | 0.0169
HMDLGTHMRLIVPTGMRVDHIVYESNGKNISVDHDRSISVRWNGEVVSIDVSPLPSRPDFDVLIYMSPK | -0.134
HMVGQIISNARKQEKMTQSELAEKVGTNKTYISRIEKGVIEPGVGLFFRIIDALGLKIEIVKP | -2.07

Then this sequence:
What soluble fraction (log2) value was documented for this sequence, HMLPEGIENGDVLTRTDALDYRKWLVTGNQKRIFASTASFYGENFNYSEVKAVSDRVLDAIPDGEPV ? -0.0413

---

test: soluble fraction after stress (log2 fold change); higher = more stays soluble; pooled small domains, quantitative proteomics; settings: stress: 75 degC
measured_metric: soluble fraction (log2)
Reply with the value as a number alone.

Study these solved cases before continuing.
HMHKREKSFFETIYDDIPGIGKKRRVQLLSAYPTLDSLKSVTLEELKQIVPEESAKLILEKRDSR | 0.0151
HMVADEGELLAIAREVVAANPKVFEDWKAGKQSAAQWFVGQIMKRTRGRANPQLALKLVTQALEEHAR | 0.0384
HMGEYGVLWYLLTKKEAVSAGELKEKLHVVPGRMTDILTALEKKGLIIRQKNKTDKRVVDVVLTKEGEKEA | -0.731
HMSDKPRYYINGNTLFISDKSVKKVLFSDLSGRSILHTTETAINIATFRGAHILTVIYTDGSTKSEVIF | -1.47
HMGKREKTKVANRQAILVAARAVFAELGYEAATVRDIIRGTDLASGTFYNYFKSKEEVFDALADDGA | -1.73

What soluble fraction (log2) value was documented for this sequence, HMDDGLTRLTPRENEVLELMAQGRSNTAIAERLVLSYGAVEKNVSSIFTKLDLPLDAGDHRRVLAVLRRLN ? -0.668

What soluble fraction (log2) value was documented for this sequence, HMRNTETMKEIQAFVEDYFFEYHQSPSMQKVADAIGTSKSTAYYYVMEMARNGMLHYDGKTIETPHTQKS ? -0.82

What soluble fraction (log2) value was documented for this sequence, HMNRETAISIYRILHILEEPYKEVFTLRTLGDLSYREIADIFGKQENWARVTYHRAKLKIREALVS ? -2.23
